molecular target: T1, HLA-A01.01 (human); experiment: competition vs radiolabeled reference peptide on purified MHC I, gel filtration
T1 construct: As for HLA-A02.01
Property Measured: IC50 (µM)
State the answer as a number, implicitly in µM.

See these solved cases before continuing.
{"Binder": "CLSFLSSWDY (also called C15ORF40(+1))", "Val": 0.987}
{"Binder": "LSFLSSWDY (also called C15ORF40(+1))", "Val": 0.0529}
{"Binder": "YMANGSLLNY (also called BTK, C481S)", "Val": 0.0132}

The measured IC50 associated with MSVCFFFFCY (also called CNOT1(-1)) reads 4.37
